B1: library; a variant is named by its letters at N, in order (parent)
chain: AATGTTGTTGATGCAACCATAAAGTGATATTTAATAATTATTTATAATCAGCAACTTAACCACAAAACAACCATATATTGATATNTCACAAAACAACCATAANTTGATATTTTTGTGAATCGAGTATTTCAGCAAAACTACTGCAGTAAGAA

variants of: B1; experiment: relative integration efficiency (T-RL orientation) vs wild-type transposon end (log2 (normalized fold change)); transposon end mutated: left end; higher = more efficient transposition; details: with VchCAST RNA-guided transposition machinery (E. coli BL21(DE3) host, lacZ target)
Property measured: relative integration efficiency (log2)

CG A93C C94A :: -0.522
CG T48A C49T A50T C52T A53G C55G T56C T57G A58G C60T C61A A66T A67T :: -4.31
CG T39G :: 0.00997
GG T31A T32A A33T T86A C87G T111A T112A T113A :: -0.495

What the record says about CT A23C A77C : relative integration efficiency (log2) is -0.234

Reported relative integration efficiency (log2) ( CG A73G ) = 0.0329

Note to self: relative integration efficiency (log2) recorded for TA G24A T30A A70C T76A T84A C87A T104A T110A T113A was -0.389

Entry TA A70C T76A T86G T104A T110A T113A — recorded relative integration efficiency (log2) = -0.344

Sample CG T12A G13A A77C T86G ; relative integration efficiency (log2) observed: -0.319

Per the record, CG A81C T82G A83C T84G has relative integration efficiency (log2) of -1.9

Record summary for CG C18A A19C : reported relative integration efficiency (log2) = -1.68

// relative integration efficiency (log2) value for CG A99C T100G A101C A102C : -1.82

Lab note: TA A70C T76A T86G A96C T112G T113C gave relative integration efficiency (log2) of -0.132

Reported relative integration efficiency (log2) of CG A96T C97G : -0.723

The value of relative integration efficiency (log2) measured for the variant CG A109G turned out to be -0.662

Form: variant = CC A22T A23T G24C T76A A77T T78A A102T T104A ; relative integration efficiency (log2) = -0.196

Field relative integration efficiency (log2) (entry TA A16C G24T T32G A33C T76A T78A T84A C87A T104A T110A T113A ) reads -0.706

Given item TG A16C G24T T32G A33C A70C T76A T84A C87A , the value recorded as its relative integration efficiency (log2) is -0.378
